# test-target: HCV NS3 protease domain (Hepatitis C virus genotype 1b, UniProt Q9WMX2)
# Construct: The first 181 amino acids of NS3 (residues 1027-1207 of the viral polyprotein); hexa-histidine (C); made in house; host or cells: E. coli BL21/DE3 pLysS
# Sequence (Q9WMX2 1027-1207, other chains not shown): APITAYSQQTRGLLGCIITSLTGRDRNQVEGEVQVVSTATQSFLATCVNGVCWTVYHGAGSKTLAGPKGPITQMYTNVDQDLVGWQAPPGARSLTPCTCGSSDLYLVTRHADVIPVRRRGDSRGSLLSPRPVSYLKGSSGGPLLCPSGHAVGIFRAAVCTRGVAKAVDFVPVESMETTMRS
# experiment-description: biochemical
# measurement-conditions: Enzyme Assay 1 (HCV NS3 Protease Domain Peptide Cleavage Assay) activity, apparent Ki class
pKi: −log10 of the molar value.
observation-type: pKi

[Q] For the record CCC[C@H](NC(=O)[C@@H]1C[C@]2(CC(c3ccc(CC)o3)=NO2)CN1C(=O)[C@@H](NC(=O)CC1CCCCC1)C(C)(C)C)C(=O)C(=O)NC1CC1 [Compound 256] , what value of pKi is listed for HCV NS3 protease domain (Hepatitis C virus genotype 1b, UniProt Q9WMX2)?
[A] 6.30 to 7.00

[Q] Cool, now CCC[C@H](NC(=O)[C@@H]1C[C@]2(CC(c3cccc(Cl)c3)=NO2)CN1C(=O)[C@@H](NC(=O)Nc1ccc(N2C(=O)C=CC2=O)cc1)C(C)(C)C)C(=O)C(=O)NC1CC1 [Compound 128]
[A] 6.30 to 7.00

[Q] Cool, now CCC[C@H](NC(=O)[C@@H]1C[C@]2(CC(c3ccccc3)=NO2)CN1C(=O)[C@@H](NC(=O)Nc1cccc2ccccc12)C(C)(C)C)C(=O)C(=O)NC1CC1 [Compound 288]
[A] 6.30 to 7.00

[Q] Cool, now C=C[C@@H]1C[C@]1(NC(=O)[C@@H]1C[C@]2(CC(c3cccc(Cl)c3)=NO2)CN1C(=O)[C@@H](NC(=O)CC1CCOCC1)C(C)(C)C)C(=O)O [Compound 384]
[A] < 6.30

[Q] Cool, now CCC[C@H](NC(=O)[C@@H]1C[C@]2(CC(c3cccc(Cl)c3)=NO2)CN1C(=O)c1cc2cc(Br)ccc2[nH]1)C(=O)C(=O)NC1CC1 [Compound 46]
[A] < 6.30
